# Target desc: SfurOBP2 (Sogatella furcifera)
# Protocol description: biochemical
# Format: binding
# Condition set: ligand concentration 10 (unit not given), replicate column 2 of 3
# Method: Thirty-six rice odorants ([He et al., 2014]; [Wang et al., 2017]) and 1-N-phenyl-naphthylamine (1-NPN) were purchased from Sigma-Aldrich (St Louis, MO, USA). […] Fluorescence competitive binding assays were performed on Tecan Spark 10M (Tecan Group Ltd., Männedorf, Switzerland) with the F96 Black ELIAS Plate (Sangon) ([Khuhro et al., 2017]; [Liu et al., 2017]). The solutions were excited at 337 nm and emission spectra were recorded between 390 and 490 nm. […]
Value kind: Fluorescence competitive binding assay, OBP2 (raw fluorescence reading)
Numbers only.

// known answers, use as guide
# Compound, Reported value
data = [
    ("C=C(C)C1CC=C(C)CC1 (single isomer, unassigned; (+)) [(+)-limonene]", 16489),
    ("CC1=CC[C@@H](C(C)(C)O)CC1", 15491),
    ("CC(=O)c1ccccc1", 17786),
    ("CCCCCCCCCCCCCCCCCCC", 23515),
    ("CCCCCCCCCCCCCCCC(=O)OC [MH(methyl hexadecanoate)]", 51904),
]

Below: the item to evaluate.
[ask] Please look up its Fluorescence competitive binding assay, OBP2 (raw fluorescence reading): C=C1CC/C=C(\C)CC[C@@H]2[C@@H]1CC2(C)C
[reply] 13413

====

# Target desc: SfurOBP11 (Sogatella furcifera)
# Sequence (V5T6E3 entry or part of it): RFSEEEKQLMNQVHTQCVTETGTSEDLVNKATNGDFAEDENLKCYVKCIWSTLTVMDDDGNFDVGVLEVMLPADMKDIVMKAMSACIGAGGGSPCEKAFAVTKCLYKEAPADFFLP
# Protocol description: biochemical
# Assay type: binding
# Condition set: ligand concentration 4, replicate 3
Note to self: values exactly at 30000 are true. So Fluorescence intensity, fluorescence competitive binding assay, OBP11 at or above 30000 is true, below is false.

# Molecule, Target desc, Answer label
data = [
    ("CCCCCCCCCCCCC=O [tridecanal]", "SfurOBP11 (Sogatella furcifera)", "false"),
    ("CCCCCCC=CCO [2-nonen-1-ol]", "SfurOBP11 (Sogatella furcifera)", "true"),
    ("Cc1ccc(C(C)C)cc1 [4-isopropyltoluene]", "SfurOBP11 (Sogatella furcifera)", "true"),
    ("O=Cc1ccccc1 [benzaldehyde]", "SfurOBP11 (Sogatella furcifera)", "false"),
    ("C[C@@H]1CC[C@H]2C(C)(C)[C@H]3C[C@@]12CC[C@@]3(C)O [cedrol]", "SfurOBP11 (Sogatella furcifera)", "true"),
]

[ask] Please check the record O=C(c1ccccc1)c1ccccc1 [benzophenone] and state if its Fluorescence intensity, fluorescence competitive binding assay, OBP11 is at or above 30000.
[reply] false

[ask] Please give the result for COC(=O)c1ccccc1 [benzoic acid methylester] too.
[reply] false

[ask] Please give the result for CCCCCCCCCCCCO [lauryl alcohol] too.
[reply] false

====

# Target desc: SfurOBP2 (Sogatella furcifera, UniProt V5T759)
# Sequence (V5T759 entry or part of it): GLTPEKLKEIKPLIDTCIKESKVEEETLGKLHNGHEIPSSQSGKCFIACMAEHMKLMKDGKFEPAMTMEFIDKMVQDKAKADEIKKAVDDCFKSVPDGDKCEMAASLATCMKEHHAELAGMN
# Protocol description: biochemical
# Assay type: binding
# Condition set: ligand concentration 2 (unit not given), replicate column 3 of 3
Note to self: values exactly at 20000 are label 1. So Fluorescence competitive binding assay, OBP2 (raw fluorescence reading) at or above 20000 is label 1, below is label 0.

# Compound, Answer label
data = [
    ("C[C@@H]1CC[C@H]2C(C)(C)[C@H]3C[C@@]12CC[C@@]3(C)O", "label 1"),
    ("CCC/C=C/CO [(E)-2-hexenol]", "label 0"),
    ("C=C(C)C1CC=C(C)CC1 (single isomer, unassigned; (+)) [(+)-limonene]", "label 0"),
    ("C/C(=C\\CO)CCC[C@H](C)CCC[C@H](C)CCCC(C)C", "label 0"),
    ("CCCCCCCCCCCCCC", "label 0"),
]

[ask] Please check the record CCCCCCCCCCCCCCCC and state if its Fluorescence competitive binding assay, OBP2 (raw fluorescence reading) is at or above 20000.
[reply] label 0

[ask] Please give the result for O=Cc1ccccc1 too.
[reply] label 0

[ask] Please give the result for CCCCCCCCCCCCCCCC(=O)OC [MH(methyl hexadecanoate)] too.
[reply] label 1

[ask] Please give the result for CCCCCCCCCCCCCCCCCCC too.
[reply] label 1

[ask] Please give the result for CC(C)COC(=O)CCCCC(=O)OCC(C)C [DA(diisobutyl adipate)] too.
[reply] label 0
